- ASSAYED_SYSTEM: T1, Human serum albumin (human, UniProt P02768 25-609)
- T1 construct: bought; immobilised on a CM5 chip by amine coupling; also called Human SA
- EXPERIMENTAL_DETAILS: SPR, SA on chip, VHH 300 nM, 25 C
VALUE_TYPE: koff (s⁻¹)

[I] VHH moiety 19 (MC6.1C22-R102S) (VHH) VHH: EVQLLESGGGLVQPGGSLRLSCAASGRYIDETAVAWFRQAPGKEREFVAGIGGGVDITYYADSVKGRFTISRDNSKNTLYLQMNSLRPEDTAVYYCAARPGSPLITSKVADLYPYWGQGTLVTVSS
[II] VHH moiety 8 (MC6.1C22-G26Y) (VHH) VHH: EVQLLESGGGLVQPGGSLRLSCAASYRYIDETAVAWFRQAPGKEREFVAGIGGGVDITYYADSVKGRFTISRDNSKNTLYLQMNSLRPEDTAVYYCAARPGRPLITSKVADLYPYWGQGTLVTVSS
**Query** For the pair I and II , which member has the lower koff number? Use the label to indicate which entry you chose.
**Result** II

Origin of measurements: patent US20240316154A1
